Cited source: patent US20060121136A1

target: angiotensin-converting enzyme (ACE) (Oryctolagus cuniculus); construct: purchased Wako Jun-yaku A6778 (Lot No.); assay: ACE inhibiting activity (Hip-His-Leu substrate, liberated hippuric acid OD at 228 nm); assay type: biochemical; conditions: final sample concentration 100 mM
Sequence (P12822 34-1310): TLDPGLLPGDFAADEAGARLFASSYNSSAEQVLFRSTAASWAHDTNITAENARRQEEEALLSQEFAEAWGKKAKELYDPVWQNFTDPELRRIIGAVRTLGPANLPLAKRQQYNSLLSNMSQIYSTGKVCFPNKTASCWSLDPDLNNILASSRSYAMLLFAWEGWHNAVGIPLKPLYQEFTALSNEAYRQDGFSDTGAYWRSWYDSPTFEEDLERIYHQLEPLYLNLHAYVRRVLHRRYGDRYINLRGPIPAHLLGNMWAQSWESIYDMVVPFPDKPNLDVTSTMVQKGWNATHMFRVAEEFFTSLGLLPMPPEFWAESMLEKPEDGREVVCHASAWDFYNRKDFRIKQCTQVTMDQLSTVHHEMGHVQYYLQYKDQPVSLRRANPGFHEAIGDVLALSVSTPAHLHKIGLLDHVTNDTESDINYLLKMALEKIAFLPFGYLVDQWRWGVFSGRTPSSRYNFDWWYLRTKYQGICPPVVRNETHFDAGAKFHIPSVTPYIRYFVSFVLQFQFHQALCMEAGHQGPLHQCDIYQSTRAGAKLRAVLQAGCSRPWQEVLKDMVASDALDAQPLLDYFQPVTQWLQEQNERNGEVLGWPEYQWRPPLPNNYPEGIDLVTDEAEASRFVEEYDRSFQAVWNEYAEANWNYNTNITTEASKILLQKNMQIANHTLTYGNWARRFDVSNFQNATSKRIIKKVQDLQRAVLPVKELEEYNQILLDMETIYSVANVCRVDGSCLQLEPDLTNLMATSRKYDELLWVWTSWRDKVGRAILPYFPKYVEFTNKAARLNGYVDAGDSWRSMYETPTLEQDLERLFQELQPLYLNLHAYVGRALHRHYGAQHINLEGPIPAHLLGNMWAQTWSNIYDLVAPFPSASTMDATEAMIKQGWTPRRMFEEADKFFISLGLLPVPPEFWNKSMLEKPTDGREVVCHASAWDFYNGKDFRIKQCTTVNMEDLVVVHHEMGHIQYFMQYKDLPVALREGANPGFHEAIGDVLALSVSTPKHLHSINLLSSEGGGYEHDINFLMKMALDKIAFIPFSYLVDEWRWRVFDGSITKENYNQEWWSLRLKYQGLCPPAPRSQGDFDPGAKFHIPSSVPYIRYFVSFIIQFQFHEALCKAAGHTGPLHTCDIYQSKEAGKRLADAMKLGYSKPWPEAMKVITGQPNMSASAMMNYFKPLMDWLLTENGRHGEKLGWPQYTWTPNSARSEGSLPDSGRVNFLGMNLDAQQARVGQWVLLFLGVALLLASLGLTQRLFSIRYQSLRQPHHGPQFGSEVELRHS
Each entry below carries its recorded ACE Inhibiting Activity (%).

compound | ACE Inhibiting Activity (%)
OC[C@H]1O[C@H](OC[C@H]2OC(O)(CO)[C@@H](O)[C@@H]2O)[C@H](O)[C@@H](O)[C@@H]1O (stereo partly shown) [compound 15, palatinose] | 93.5%
OC[C@H]1O[C@H](OC[C@H]2OC(O)[C@H](O)[C@@H](O)[C@@H]2O)[C@H](O)[C@@H](O)[C@@H]1O (stereo partly shown) [compound 10, isomaltose] | 27.2%
OC[C@H]1O[C@@H](OC[C@H]2OC(O)[C@H](O)[C@@H](O)[C@H]2O)[C@H](O)[C@@H](O)[C@H]1O (stereo partly drawn) [compound 13, Gal(β1-6)Gal] | 54.9%
OC[C@H]1O[C@H](OCC2O[C@@H](O)[C@H](O)[C@@H](O)[C@@H]2O)[C@H](O)[C@@H](O)[C@H]1O (stereo partly shown) [compound 12, melibiose] | 40.7%
